Assay Protocol: Fulvestrant aqueous solubility in the presence and absence of cyclodextrins (excess drug, shaken 24 h, filtered, HPLC)
Type: physicochemical
Conditions: aqueous cyclodextrin solution, 22 °C, aqueous with cosolvent or surfactant or cyclodextrin, thermodynamic from solid, enhancement with ACD; SBEBCD and HPGCD; read-out: fulvestrant aqueous solubilities

>  <Compound>
C[C@]12CC[C@@H]3c4ccc(O)cc4C[C@@H](CCCCCCCCC[S+]([O-])CCCC(F)(F)C(F)(F)F)[C@H]3[C@@H]1CC[C@@H]2O (stereo partly shown)

>  <solubility at 24 h>
1000 to 2000 µg/mL

$$$$

###

Assay Protocol: Fulvestrant aqueous solubility in the presence and absence of cyclodextrins (excess drug, shaken 24 h, filtered, HPLC)
Format: physicochemical
Conditions: aqueous cyclodextrin solution, 22 °C, aqueous with cosolvent or surfactant or cyclodextrin, thermodynamic from solid, in 400 mg/mL HPBCD; read-out: aqueous solubility of fulvestrant
Measure Name: solubility at 24 h (µg/mL)

>  <Molecule>
C[C@]12CC[C@@H]3c4ccc(O)cc4C[C@@H](CCCCCCCCC[S+]([O-])CCCC(F)(F)C(F)(F)F)[C@H]3[C@@H]1CC[C@@H]2O (stereo partly shown) [Fulvestrant]

>  <U>
µg/mL

>  <Result>
5500

$$$$

###

Assay Protocol: Fulvestrant aqueous solubility in the presence and absence of cyclodextrins (excess drug, shaken 24 h, filtered, HPLC)
Assay type: physicochemical
Conditions: water (ddH2O) without cyclodextrin, water, thermodynamic from solid; 0 mg/mL SBEBCD in ddH2O, 22° C., 24 h; read-out: True Fulvestrant Concentration

>  <Compound>
C[C@]12CC[C@@H]3c4ccc(O)cc4C[C@@H](CCCCCCCCC[S+]([O-])CCCC(F)(F)C(F)(F)F)[C@H]3[C@@H]1CC[C@@H]2O (stereo partly shown)

>  <solubility thermodynamic at 24 h>
< 10 µg/mL

$$$$

###

Assay Protocol: Fulvestrant aqueous solubility in the presence and absence of cyclodextrins (excess drug, shaken 24 h, filtered, HPLC)
Assay type: physicochemical
Conditions: aqueous cyclodextrin solution, 22 °C, aqueous with cosolvent or surfactant or cyclodextrin, thermodynamic from solid, in 400 mg/mL MBCD; read-out: fulvestrant aqueous solubility

>  <Molecule>
C[C@]12CC[C@@H]3c4ccc(O)cc4C[C@@H](CCCCCCCCC[S+]([O-])CCCC(F)(F)C(F)(F)F)[C@H]3[C@@H]1CC[C@@H]2O (stereo partly shown)

>  <U>
mg/mL

>  <solubility at 24 h>
35.9

$$$$

###

Assay Protocol: Fulvestrant aqueous solubility in the presence and absence of cyclodextrins (excess drug, shaken 24 h, filtered, HPLC)
Assay type: physicochemical
Conditions: water (ddH2O), 22 °C, water, thermodynamic from solid, absence of cyclodextrin; read-out: aqueous solubility of fulvestrant
Measure Name: solubility at 24 h

>  <Molecule>
C[C@]12CC[C@@H]3c4ccc(O)cc4C[C@@H](CCCCCCCCC[S+]([O-])CCCC(F)(F)C(F)(F)F)[C@H]3[C@@H]1CC[C@@H]2O (stereo partly shown)

>  <Measure Name>
solubility at 24 h

>  <Result>
< 0.01 mg/mL

$$$$
